# testedTarget: HLA-A*0206 (human)
# assayNotes: competition with 125I probe peptide, purified HLA class I
readoutName: pIC50
Please treat pIC50 as minus the base-10 logarithm of the molar concentration.

Q: Name the reported pIC50 value associated with the binder CTTIHYNYM [1329.04 CTTIHYNYM p53.229]
Result: 6.25
